Experiment: Inhibition of PB2 in Influenza A virus (A/Weiss/1943(H1N1)) infected in MDCK cells assessed as reduction in virus induced cell death after 5 days by CCK-8 assay
In this section, each of the molecules is paired with its reported pEC50.
// scale note: pEC50 = -log10(conc_M); give the bare number

Previously resolved entries follow.
Enquiry: # get_value(readout='pEC50', item= `Cn1cc(F)c2c(N[C@H]3C4CCC(CC4)[C@@H]3C(=O)O)nc(-c3c[nH]c4ncc(F)cc34)nc21` )
Return: 8.02

Enquiry: Requested field: pEC50. Item: `N#Cc1csc2c(N[C@H]3C4CCC(CC4)[C@@H]3C(=O)O)nc(-c3c[nH]c4ncc(F)cc34)nc12`
Return: 8.40

Enquiry: Param item = `O=C(O)[C@H]1C2CCC(CC2)[C@@H]1Nc1nc(-c2c[nH]c3ncc(F)cc23)nc2cscc12` ; retrieve measured pEC50.
Return: 8.85

We now examine a further molecule.
Enquiry: Param item = `O=C(O)[C@H]1C2CCC(CC2)[C@@H]1Nc1nc(-c2c[nH]c3ncc(F)cc23)ncc1F` ; retrieve measured pEC50.
Return: 9.22

====

Test: Inhibition of PB2 in Influenza A virus (A/Weiss/1943(H1N1)) infected in MDCK cells assessed as reduction in virus induced cell death after 5 days by CCK-8 assay
Field 'label' (enum: satisfied / not satisfied). Set to satisfied when EC50 is strictly under 10 nM; else not satisfied.

Enquiry: Take the compound `O=C(O)[C@H]1C2CCC(CC2)[C@@H]1Nc1nc(-c2c[nH]c3ncc(F)cc23)nc2c1CS(=O)(=O)C2` and say whether its EC50 is less than 10 nM.
Return: not satisfied

Enquiry: Say whether its EC50 is strictly beneath 10 nM. Entry: `O=C(O)[C@H]1C2CCC(CC2)[C@@H]1Nc1nc(-n2ccc3ncc(F)cc32)ncc1F`
Return: not satisfied

Enquiry: is_below(EC50, 10 nM) for `O=C(O)[C@H]1C2CCC(CC2)[C@@H]1Nc1nc(-c2c[nH]c3ccc(F)cc23)ncc1F` ?
Return: not satisfied

Enquiry: EC50 under 10 nM? Item: `O=C(O)[C@H]1C2CCC(CC2)[C@@H]1Nc1nc(-c2c[nH]c3ncc(F)cc23)nc2c1CCCC2`
Return: not satisfied

Enquiry: Report whether reported EC50 is lower than 10 nM (strictly) for `O=C(O)[C@H]1C2CCC(CC2)[C@@H]1Nc1nc(-c2c[nH]c3ncc(F)cc23)nc2c1CCS2`
Return: satisfied

Enquiry: Does `O=C(O)[C@H]1C2CCC(CC2)[C@@H]1Nc1nc(-c2n[nH]c3ncc(F)cc23)nc2c1SCC2` have EC50 strictly under 10 nM?
Return: satisfied

Further cases:
Enquiry: Item `O=C(O)[C@H]1C2CCC(CC2)[C@@H]1Nc1nc(-c2n[nH]c3ncc(F)cc23)nc2ccsc12` : EC50 beneath 10 nM, strictly?
Return: satisfied

Enquiry: For this compound, is EC50 lower than 10 nM? `Cc1cccc2nc(N[C@H]3C4CCC(CC4)[C@@H]3C(=O)O)nc(-c3c[nH]c4ncc(F)cc34)c12`
Return: not satisfied

====

Assay: Inhibition of PB2 in Influenza A virus (A/Weiss/1943(H1N1)) infected in MDCK cells assessed as reduction in virus induced cell death after 5 days by CCK-8 assay
quantity: EC50 (µM)
Reply with just the number (in µM).

Enquiry: What measured EC50 goes with `O=C(O)[C@H]1C2CCC(CC2)[C@@H]1n1cnc2cnc(-c3c[nH]c4ncc(F)cc34)nc21` ?
Return: 0.19

Enquiry: Which EC50 reading was recorded for the compound `O=C(O)[C@H]1C2CCC(CC2)[C@@H]1Nc1nc(-c2c[nH]c3ncc(F)cc23)nc2nccnc12` ?
Return: 0.013

Enquiry: I have this compound here, `O=C(O)[C@H]1C2CCC(CC2)[C@@H]1Nc1nc(-c2c[nH]c3ncc(F)cc23)nc2c1S(=O)(=O)CC2` , and I need its recorded EC50.
Return: 0.11

Turning now to a further compound:
Enquiry: Look up EC50: `O=C(O)[C@H]1C2CCC(CC2)[C@@H]1Nc1nc(-c2c[nH]c3ncc(F)cc23)nc2c1CSC2`
Return: 0.0026
